system: C. reinhardtii CC-1928; assay: Effect of copper on activity of hydrazones: in vitro growth inhibition of C. reinhardtii in TAP Cu minus / TAP Cu plus medium (Example 10); assay type: cell-based, Chlamydomonas reinhardtii; settings: test compound 1 μg/mL; TAP Cu plus medium (CuCl2); 48 h
MEASURE: % Inhn. Plus Copper Observed

Example molecules with recorded % Inhn. Plus Copper Observed:
[
  {
    "MOLECULE": "O=C(N/N=C/c1cc(C(F)(F)F)cc(Cl)c1O)c1cccc(F)c1",
    "ASSAY SYSTEM": "C. reinhardtii CC-1928",
    "ASSAY VALUE": "97%"
  },
  {
    "MOLECULE": "C/C(=N\\NC(=O)c1ccc(Cl)cc1)c1cccc([N+](=O)[O-])c1O",
    "ASSAY SYSTEM": "C. reinhardtii CC-1928",
    "ASSAY VALUE": "89%"
  },
  {
    "MOLECULE": "O=C(N/N=C/c1ccc(Cl)c(Cl)c1O)c1cccc(Cl)c1",
    "ASSAY SYSTEM": "C. reinhardtii CC-1928",
    "ASSAY VALUE": "96%"
  },
  {
    "MOLECULE": "C/C(=N\\NC(=O)Cc1ccccc1)c1cc(Cl)cc(Cl)c1O",
    "ASSAY SYSTEM": "C. reinhardtii CC-1928",
    "ASSAY VALUE": "96%"
  }
]

Could you now consider this next molecule?
The reported % Inhn. Plus Copper Observed of the molecule Cc1ccc(C(=O)N/N=C/c2cccc(C(F)(F)F)c2O)c(O)c1 was 97%
